- Tested on: ATP;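 also: ATP exposure 15 min at 22 °C before imaging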
- Assay Text: switch fluorescence ratio, 500 uM ATP over buffer (Cy3 cluster intensity, sum of 5 cycles each) (fold (ratio)); higher = stronger signal-on switching upon ATP binding; sequences stand for … in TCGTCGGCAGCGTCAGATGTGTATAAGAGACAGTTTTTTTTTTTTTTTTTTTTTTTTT…TC
- Reported Conditions: aptamer strand: ATP DNA aptamer (quencher-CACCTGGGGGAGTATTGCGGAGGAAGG + anchor), 100 nM annealed; ATP concentration: 500 uM
Listing: switch fluorescence ratio of selected sequences
The answer should be a number; do not append a unit.

In the examples that follow, each entry is paired with its recorded switch fluorescence ratio.
CATGCGGCCG :: 0.992
GGGGTTGAAA :: 0.973
GCTCATAGAT :: 0.988
TATTTTCATT :: 0.999

Here is the next item to consider.
Prompt: Suppose we examine the sequence TTTTTTTCCA ; what switch fluorescence ratio value has been reported?
Response: 1.02

###

Listing: switch fluorescence ratio of selected sequences
- System: ATP;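 also: ATP exposure 15 min at 22 °C before imaging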
- Assay Text: switch fluorescence ratio, 500 uM ATP over buffer (Cy3 cluster intensity, sum of 5 cycles each) (fold (ratio)); higher = stronger signal-on switching upon ATP binding; sequences stand for … in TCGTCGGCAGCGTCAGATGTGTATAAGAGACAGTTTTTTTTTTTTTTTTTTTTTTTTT…TC
- Reported Conditions: aptamer strand: ATP DNA aptamer (quencher-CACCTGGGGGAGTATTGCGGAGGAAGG + anchor), 100 nM annealed; ATP concentration: 500 uM
The answer should be a number; do not append a unit.

In the examples that follow, each entry is paired with its recorded switch fluorescence ratio.
TCTTCACTAA :: 1
AGAGGCCAAC :: 1
ATTTTGTTCG :: 1.04
TTGATTCG :: 1.01
AGGGTTGTGA :: 1
TTGGAGCGTG :: 1

Prompt: Suppose we examine the sequence TTTCGGTGTG ; what switch fluorescence ratio value has been reported?
Response: 0.977

Prompt: Suppose we examine the sequence CAAAAGGGAA ; what switch fluorescence ratio value has been reported?
Response: 1.02

Prompt: Suppose we examine the sequence AAGCATGTTG ; what switch fluorescence ratio value has been reported?
Response: 0.966

Prompt: Suppose we examine the sequence CGGGCTTAAA ; what switch fluorescence ratio value has been reported?
Response: 1

Prompt: Suppose we examine the sequence ACGGGGTCAG ; what switch fluorescence ratio value has been reported?
Response: 0.999

Prompt: Suppose we examine the sequence GCGTGCAGGC ; what switch fluorescence ratio value has been reported?
Response: 1.03

Prompt: Suppose we examine the sequence TCGGATAGAG ; what switch fluorescence ratio value has been reported?
Response: 0.949

###

Listing: switch fluorescence ratio of selected sequences
- Test system: ATP;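 also: ATP exposure 15 min at 22 °C before imaging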
- Assay Text: switch fluorescence ratio, 500 uM ATP over buffer (Cy3 cluster intensity, sum of 5 cycles each) (fold (ratio)); higher = stronger signal-on switching upon ATP binding; sequences stand for … in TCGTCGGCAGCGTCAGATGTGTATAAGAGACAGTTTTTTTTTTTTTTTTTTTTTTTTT…TC
- Reported Conditions: aptamer strand: ATP DNA aptamer (quencher-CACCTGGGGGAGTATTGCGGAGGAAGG + anchor), 100 nM annealed; ATP concentration: 500 uM
The answer should be a number; do not append a unit.

CAAGGTTTTT :: 1.01
ATAACATTAG :: 0.998
TGGTGGGTTT :: 1

Prompt: Suppose we examine the sequence GTGCGAGAAC ; what switch fluorescence ratio value has been reported?
Response: 1.01

Prompt: Suppose we examine the sequence TCGGTTAATG ; what switch fluorescence ratio value has been reported?
Response: 1

Prompt: Suppose we examine the sequence GGAATGTGAA ; what switch fluorescence ratio value has been reported?
Response: 0.978

Prompt: Suppose we examine the sequence AAAGGAAAGT ; what switch fluorescence ratio value has been reported?
Response: 1.01

Prompt: Suppose we examine the sequence GAGGGGATGT ; what switch fluorescence ratio value has been reported?
Response: 0.978

Prompt: Suppose we examine the sequence CTGGCCAGTT ; what switch fluorescence ratio value has been reported?
Response: 1

Prompt: Suppose we examine the sequence AAGGCAATTA ; what switch fluorescence ratio value has been reported?
Response: 1.15

###

- System: ATP;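 also: ATP exposure 15 min at 22 °C before imaging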
- Assay Text: switch fluorescence ratio, 500 uM ATP over buffer (Cy3 cluster intensity, sum of 5 cycles each) (fold (ratio)); higher = stronger signal-on switching upon ATP binding; sequences stand for … in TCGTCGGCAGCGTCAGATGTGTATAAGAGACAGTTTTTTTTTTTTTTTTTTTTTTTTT…TC
- Reported Conditions: aptamer strand: ATP DNA aptamer (quencher-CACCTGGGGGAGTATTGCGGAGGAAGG + anchor), 100 nM annealed; ATP concentration: 500 uM
Listing: switch fluorescence ratio of selected sequences

In the examples that follow, each entry is paired with its recorded switch fluorescence ratio.
CGGTGTAGCC :: 1.02
GCATTTTATT :: 0.994
AAACGGCTAA :: 1.02
GATGCGGGGA :: 1.01

Here is the next item to consider.
Prompt: Lab request: please report switch fluorescence ratio under test system ATP for GAAAAAAAGG;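 also: ATP exposure 15 min at 22 °C before imaging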
Response: 0.982

###

- Test system: ATP;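 also: ATP exposure 15 min at 22 °C before imaging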
- Assay Text: switch fluorescence ratio, 500 uM ATP over buffer (Cy3 cluster intensity, sum of 5 cycles each) (fold (ratio)); higher = stronger signal-on switching upon ATP binding; sequences stand for … in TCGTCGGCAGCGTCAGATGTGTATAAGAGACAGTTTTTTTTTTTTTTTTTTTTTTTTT…TC
- Reported Conditions: aptamer strand: ATP DNA aptamer (quencher-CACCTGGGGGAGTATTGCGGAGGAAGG + anchor), 100 nM annealed; ATP concentration: 500 uM
Attribute Measured: switch fluorescence ratio
The answer should be a number; do not append a unit.

TTTCCACGGG :: 1.18
AGCCAGAGGG :: 1
CGCAGTTATT :: 1.08

Prompt: Suppose we examine the sequence AACTTTCCTC ; what switch fluorescence ratio value has been reported?
Response: 2.49

Prompt: Suppose we examine the sequence TGAAGAGGAT ; what switch fluorescence ratio value has been reported?
Response: 1.09

Prompt: Suppose we examine the sequence GTGAGGGACG ; what switch fluorescence ratio value has been reported?
Response: 0.999

Prompt: Suppose we examine the sequence TGACTTTTTA ; what switch fluorescence ratio value has been reported?
Response: 0.993

Prompt: Suppose we examine the sequence GGGGGTATAG ; what switch fluorescence ratio value has been reported?
Response: 1.02

Prompt: Suppose we examine the sequence AGAAGGAGGT ; what switch fluorescence ratio value has been reported?
Response: 0.987

Prompt: Suppose we examine the sequence TTAAAATTAA ; what switch fluorescence ratio value has been reported?
Response: 0.975

Prompt: Suppose we examine the sequence ACTACGCCCG ; what switch fluorescence ratio value has been reported?
Response: 1.37

###

Listing: switch fluorescence ratio of selected sequences
- System: ATP;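 also: ATP exposure 15 min at 22 °C before imaging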
- Assay Text: switch fluorescence ratio, 500 uM ATP over buffer (Cy3 cluster intensity, sum of 5 cycles each) (fold (ratio)); higher = stronger signal-on switching upon ATP binding; sequences stand for … in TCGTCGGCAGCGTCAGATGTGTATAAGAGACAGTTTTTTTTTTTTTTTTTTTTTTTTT…TC
- Reported Conditions: aptamer strand: ATP DNA aptamer (quencher-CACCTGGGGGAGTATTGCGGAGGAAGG + anchor), 100 nM annealed; ATP concentration: 500 uM
The answer should be a number; do not append a unit.

Prompt: Lab request: please report switch fluorescence ratio under test system ATP for TCCGGGTAGG;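 also: ATP exposure 15 min at 22 °C before imaging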
Response: 1.04

Prompt: Lab request: please report switch fluorescence ratio under test system ATP for TTGGTTGAAT;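 also: ATP exposure 15 min at 22 °C before imaging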
Response: 0.998

Prompt: Lab request: please report switch fluorescence ratio under test system ATP for GGGGTATTGG;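 also: ATP exposure 15 min at 22 °C before imaging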
Response: 0.993

###

- Test system: ATP;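 also: ATP exposure 15 min at 22 °C before imaging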
- Assay Text: switch fluorescence ratio, 500 uM ATP over buffer (Cy3 cluster intensity, sum of 5 cycles each) (fold (ratio)); higher = stronger signal-on switching upon ATP binding; sequences stand for … in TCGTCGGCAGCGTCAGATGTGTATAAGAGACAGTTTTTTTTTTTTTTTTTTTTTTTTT…TC
- Reported Conditions: aptamer strand: ATP DNA aptamer (quencher-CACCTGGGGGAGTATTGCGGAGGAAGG + anchor), 100 nM annealed; ATP concentration: 500 uM
Attribute Measured: switch fluorescence ratio
The answer should be a number; do not append a unit.

In the examples that follow, each entry is paired with its recorded switch fluorescence ratio.
AAAGTAGGTA :: 0.976
TGAGTTGACT :: 1
TATTATGTCA :: 1.01
CCTAGTAGCG :: 1.01

Prompt: Suppose we examine the sequence TTTGGATTGT ; what switch fluorescence ratio value has been reported?
Response: 1.01

###

- System: ATP;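 also: ATP exposure 15 min at 22 °C before imaging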
- Assay Text: switch fluorescence ratio, 500 uM ATP over buffer (Cy3 cluster intensity, sum of 5 cycles each) (fold (ratio)); higher = stronger signal-on switching upon ATP binding; sequences stand for … in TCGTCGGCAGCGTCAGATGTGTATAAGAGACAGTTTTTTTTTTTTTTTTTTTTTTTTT…TC
- Reported Conditions: aptamer strand: ATP DNA aptamer (quencher-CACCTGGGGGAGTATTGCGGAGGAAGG + anchor), 100 nM annealed; ATP concentration: 500 uM
Attribute Measured: switch fluorescence ratio
The answer should be a number; do not append a unit.

Prompt: Lab request: please report switch fluorescence ratio under test system ATP for TTTCCAAGGT;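 also: ATP exposure 15 min at 22 °C before imaging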
Response: 1.12

Prompt: Lab request: please report switch fluorescence ratio under test system ATP for CTTGTTGGGT;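 also: ATP exposure 15 min at 22 °C before imaging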
Response: 0.999

Prompt: Lab request: please report switch fluorescence ratio under test system ATP for TAGGTGGCGG;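 also: ATP exposure 15 min at 22 °C before imaging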
Response: 0.991

Prompt: Lab request: please report switch fluorescence ratio under test system ATP for TGGGAGTTCA;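 also: ATP exposure 15 min at 22 °C before imaging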
Response: 0.971

Prompt: Lab request: please report switch fluorescence ratio under test system ATP for CATTAGCGCA;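 also: ATP exposure 15 min at 22 °C before imaging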
Response: 1.05
